test: Half life in human liver microsomes; type: ADME, Microsome
quantity-kind: half-life (min)

> print(dat)
                                   molecule  quantity.kind  result.number
1  CN(C)CCCNC(=O)c1ccc2c(c1)CC(c1nc3ccc(-c4ccnc(N)n4)cc3[nH]1)CO2 (configuration not stated)      half-life            100
2  Nc1nccc(-c2ccc3nc(C4COc5ccc(C(=O)NCCc6cccnc6)cc5C4)[nH]c3c2)n1 (configuration not stated)      half-life            1.5

====

test: Volume of distribution at steady state in rat at 2 mg/kg, po or 1 mg/kg, iv; format: ADME, organism-based; settings: in vivo, read-out: Vdss
quantity-kind: Vd (L/kg)

> print(dat)
                                   compound  result.number
1  CN(C)CCCNC(=O)c1ccc2c(c1)CC(c1nc3ccc(-c4ccnc(N)n4)cc3[nH]1)CO2 (configuration not stated)            4.6
2  Nc1nccc(-c2ccc3nc(C4COc5ccc(C(=O)NCCc6cccnc6)cc5C4)[nH]c3c2)n1 (configuration not stated)            5.9

====

assay: Cmax in rat at 2 mg/kg, po; type: ADME, organism-based; design: dose 2 mg/kg, route oral; settings: in vivo
Documented Cmax across a set of compounds
quantity-kind: Cmax (nM)

> print(dat)
                                   compound  quantity.kind  result.number
1  CN(C)CCCNC(=O)c1ccc2c(c1)CC(c1nc3ccc(-c4ccnc(N)n4)cc3[nH]1)CO2 (configuration not stated)           Cmax              3
2  Nc1nccc(-c2ccc3nc(C4COc5ccc(C(=O)NCCc6cccnc6)cc5C4)[nH]c3c2)n1 (configuration not stated)           Cmax              5

====

assay: Oral bioavailability in rat at 2 mg/kg; assay type: ADME, organism-based; conditions: in vivo
quantity-kind: bioavailability

> print(dat)
                                   compound  result
1  Nc1nccc(-c2ccc3nc(C4COc5ccc(C(=O)NCCc6cccnc6)cc5C4)[nH]c3c2)n1 (configuration not stated)      6%
2  CN(C)CCCNC(=O)c1ccc2c(c1)CC(c1nc3ccc(-c4ccnc(N)n4)cc3[nH]1)CO2 (configuration not stated)    < 1%

====

experiment: Inhibition of PKA
pIC50: −log10 of the molar value.
# pIC50 per record follows
quantity-kind: pIC50

> print(dat)
                                    compound  quantity.kind  qualifier.sign  result.number
 1  Cc1cc(-c2ccncc2)cc2[nH]c(C3COc4ccccc4O3)nc12 (stereo not given)          pIC50               =           5.86
 2  CN(C)C(=O)c1ccc2c(c1)CC(c1nc3ccc(-c4ccnc(N)n4)cc3[nH]1)CO2 (stereo not given)          pIC50               =           5.76
 3  c1ccc2c(c1)OCC(c1nc3ccc(-c4ccncc4)cc3[nH]1)O2 (stereo not given)          pIC50               =           6.45
 4  Nc1nccc(-c2ccc3nc(C4COc5ccc(C(=O)NCCc6ccccc6)cc5C4)[nH]c3c2)n1 (stereo not given)          pIC50               =           6.15
 5  Nc1nccc(-c2ccc3nc(C4COc5ccc(C(=O)NC6CCCCC6)cc5C4)[nH]c3c2)n1 (stereo not given)          pIC50               =           7.70
 6  COc1ccc2c(c1)CC(c1nc3c(OCCCO)cc(-c4ccncc4)cc3[nH]1)CO2 (stereo not given)          pIC50               =           5.80
 7  COc1c(-c2ccncc2)ccc2nc(C3COc4ccccc4C3)[nH]c12 (stereo not given)          pIC50               =           6.73
 8  COc1ccc2c(c1)CC(c1nc3c(OCCN(C)C)cc(-c4ccncc4)cc3[nH]1)CO2 (stereo not given)          pIC50               <           4.70
 9  COCCn1c(C2COc3ccccc3O2)nc2ccc(-c3ccncc3)cc21 (stereo not given)          pIC50               =           6.51
10  Cn1c(C2COc3ccccc3O2)nc2cc(-c3ccncc3)ccc21 (stereo not given)          pIC50               =           5.50

Every entry's value here was drawn from ChEMBL document CHEMBL1155401.
